Exercise: for every item that follows, state its recorded IC50.
target: eqBChE (BChE from equine serum) (Equus caballus, UniProt P81908); construct: BChE (E.C. 3.1.1.8, from equine serum); purchased Sigma-Aldrich; host or cells: equine serum; test: biochemical; settings: incubation time 45 min; read-out: IC50 eqBChE under different incubation time
Sequence (P81908 whole entry): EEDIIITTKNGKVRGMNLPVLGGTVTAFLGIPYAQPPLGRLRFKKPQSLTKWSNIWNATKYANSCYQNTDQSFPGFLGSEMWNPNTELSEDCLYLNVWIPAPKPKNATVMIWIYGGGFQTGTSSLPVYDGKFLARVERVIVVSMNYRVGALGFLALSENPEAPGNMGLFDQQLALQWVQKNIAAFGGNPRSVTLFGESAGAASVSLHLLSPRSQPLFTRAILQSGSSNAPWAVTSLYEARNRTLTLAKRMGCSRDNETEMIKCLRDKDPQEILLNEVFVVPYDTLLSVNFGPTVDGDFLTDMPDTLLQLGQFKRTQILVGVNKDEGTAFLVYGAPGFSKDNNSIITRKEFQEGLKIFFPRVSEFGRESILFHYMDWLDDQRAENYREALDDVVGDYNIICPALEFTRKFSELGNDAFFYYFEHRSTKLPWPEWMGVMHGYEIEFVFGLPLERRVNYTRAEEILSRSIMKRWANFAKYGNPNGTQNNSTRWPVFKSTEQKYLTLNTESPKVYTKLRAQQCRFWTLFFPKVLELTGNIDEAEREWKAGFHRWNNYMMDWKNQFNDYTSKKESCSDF
Report the value in µM with no unit label.

For the compound Clc1ccccc1-c1ccn(-c2ccccc2)c1 , give its measured IC50 value.
2.4

Name the recorded IC50 of the item c1ccc(-c2ccc(-c3ccn(-c4ccccc4)c3)cc2)cc1 in your answer.
4.41

Fill in IC50 for record COc1ccccc1-c1ccn(-c2ccccc2)c1
6.67
